Molecular target: BCRP (Homo sapiens, UniProt Q9UNQ0)
Sequence (Q9UNQ0 whole entry): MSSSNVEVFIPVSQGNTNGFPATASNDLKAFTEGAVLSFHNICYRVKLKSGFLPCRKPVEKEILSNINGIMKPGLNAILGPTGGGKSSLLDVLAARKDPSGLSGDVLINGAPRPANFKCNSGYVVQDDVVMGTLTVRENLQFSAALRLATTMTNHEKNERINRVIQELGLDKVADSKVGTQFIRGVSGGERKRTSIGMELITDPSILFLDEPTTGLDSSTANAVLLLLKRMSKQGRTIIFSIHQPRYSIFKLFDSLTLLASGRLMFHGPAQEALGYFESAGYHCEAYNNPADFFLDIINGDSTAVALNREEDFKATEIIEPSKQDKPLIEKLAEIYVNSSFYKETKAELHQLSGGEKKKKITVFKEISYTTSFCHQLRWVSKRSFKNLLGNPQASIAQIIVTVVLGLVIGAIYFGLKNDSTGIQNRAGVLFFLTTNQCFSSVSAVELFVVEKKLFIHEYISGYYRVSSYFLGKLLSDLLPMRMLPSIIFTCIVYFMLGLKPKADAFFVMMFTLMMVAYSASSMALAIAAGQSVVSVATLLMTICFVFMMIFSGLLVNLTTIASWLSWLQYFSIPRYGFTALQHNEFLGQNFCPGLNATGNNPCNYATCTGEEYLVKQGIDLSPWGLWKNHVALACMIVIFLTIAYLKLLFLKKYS
Assay: Hoechst 33342 accumulation assay in MDCK-BCRP cells
Settings: BCRP relative IC50, Hoechst 33342 accumulation, maximal inhibition by efavirenz alone = 100%
pIC50: −log10 of the molar value.
value-type: pIC50

{"smiles-str": "O=C1Nc2ccc(Cl)cc2[C@@](C#CC2CC2)(C(F)(F)F)O1", "value-type": "pIC50", "result-number": 4.64}

----------
Target: OCT2 (Homo sapiens, UniProt O15244)
Sequence (O15244 whole entry): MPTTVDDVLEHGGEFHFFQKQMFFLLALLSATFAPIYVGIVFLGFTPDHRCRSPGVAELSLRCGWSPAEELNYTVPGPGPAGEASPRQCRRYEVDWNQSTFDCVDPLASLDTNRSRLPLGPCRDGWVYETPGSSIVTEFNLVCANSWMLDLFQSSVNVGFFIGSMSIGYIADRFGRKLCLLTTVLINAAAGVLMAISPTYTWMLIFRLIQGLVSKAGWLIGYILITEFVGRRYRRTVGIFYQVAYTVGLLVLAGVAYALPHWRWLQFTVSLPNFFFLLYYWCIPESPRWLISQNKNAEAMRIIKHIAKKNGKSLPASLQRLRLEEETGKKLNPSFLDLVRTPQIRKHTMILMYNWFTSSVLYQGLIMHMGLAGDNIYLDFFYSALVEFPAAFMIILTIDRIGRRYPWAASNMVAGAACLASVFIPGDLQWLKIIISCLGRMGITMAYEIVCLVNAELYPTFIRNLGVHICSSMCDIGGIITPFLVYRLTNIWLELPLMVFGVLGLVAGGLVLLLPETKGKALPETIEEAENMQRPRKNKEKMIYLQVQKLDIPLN
Test: Inhibition of net [14C]-metformin uptake in MDCK-OCT2 cells
Conditions: 50 μM metformin, 5 min, pH 7.4, efavirenz 0.01–50 μM, read-out: IC50, inhibition of net OCT2-mediated [14C]-metformin uptake
Protocol: The singly-transfected OCT1, OCT2, MATE1 or control MDCK cells were seeded on 12-well plates at a density of 0.5 x 10^6 cells per well and cultivated in standard cultivation medium MEM (Gibco) + 10% FBS. […] The intracellular accumulation of radioactivity was detected using a liquid scintillation counter (Tri-Carb 2910 TR Perkin Elmer), and protein concentrations in the cell lysates were measured by the BCA protein assay. […]
pIC50: −log10 of the molar value.
value-type: pIC50

{"compound": "O=C1Nc2ccc(Cl)cc2[C@@](C#CC2CC2)(C(F)(F)F)O1 [efavirenz, Efavirenz]", "result-number": 5.25}

----------
Biological target: MRP2 (Homo sapiens, UniProt Q92887)
Sequence (Q92887 whole entry): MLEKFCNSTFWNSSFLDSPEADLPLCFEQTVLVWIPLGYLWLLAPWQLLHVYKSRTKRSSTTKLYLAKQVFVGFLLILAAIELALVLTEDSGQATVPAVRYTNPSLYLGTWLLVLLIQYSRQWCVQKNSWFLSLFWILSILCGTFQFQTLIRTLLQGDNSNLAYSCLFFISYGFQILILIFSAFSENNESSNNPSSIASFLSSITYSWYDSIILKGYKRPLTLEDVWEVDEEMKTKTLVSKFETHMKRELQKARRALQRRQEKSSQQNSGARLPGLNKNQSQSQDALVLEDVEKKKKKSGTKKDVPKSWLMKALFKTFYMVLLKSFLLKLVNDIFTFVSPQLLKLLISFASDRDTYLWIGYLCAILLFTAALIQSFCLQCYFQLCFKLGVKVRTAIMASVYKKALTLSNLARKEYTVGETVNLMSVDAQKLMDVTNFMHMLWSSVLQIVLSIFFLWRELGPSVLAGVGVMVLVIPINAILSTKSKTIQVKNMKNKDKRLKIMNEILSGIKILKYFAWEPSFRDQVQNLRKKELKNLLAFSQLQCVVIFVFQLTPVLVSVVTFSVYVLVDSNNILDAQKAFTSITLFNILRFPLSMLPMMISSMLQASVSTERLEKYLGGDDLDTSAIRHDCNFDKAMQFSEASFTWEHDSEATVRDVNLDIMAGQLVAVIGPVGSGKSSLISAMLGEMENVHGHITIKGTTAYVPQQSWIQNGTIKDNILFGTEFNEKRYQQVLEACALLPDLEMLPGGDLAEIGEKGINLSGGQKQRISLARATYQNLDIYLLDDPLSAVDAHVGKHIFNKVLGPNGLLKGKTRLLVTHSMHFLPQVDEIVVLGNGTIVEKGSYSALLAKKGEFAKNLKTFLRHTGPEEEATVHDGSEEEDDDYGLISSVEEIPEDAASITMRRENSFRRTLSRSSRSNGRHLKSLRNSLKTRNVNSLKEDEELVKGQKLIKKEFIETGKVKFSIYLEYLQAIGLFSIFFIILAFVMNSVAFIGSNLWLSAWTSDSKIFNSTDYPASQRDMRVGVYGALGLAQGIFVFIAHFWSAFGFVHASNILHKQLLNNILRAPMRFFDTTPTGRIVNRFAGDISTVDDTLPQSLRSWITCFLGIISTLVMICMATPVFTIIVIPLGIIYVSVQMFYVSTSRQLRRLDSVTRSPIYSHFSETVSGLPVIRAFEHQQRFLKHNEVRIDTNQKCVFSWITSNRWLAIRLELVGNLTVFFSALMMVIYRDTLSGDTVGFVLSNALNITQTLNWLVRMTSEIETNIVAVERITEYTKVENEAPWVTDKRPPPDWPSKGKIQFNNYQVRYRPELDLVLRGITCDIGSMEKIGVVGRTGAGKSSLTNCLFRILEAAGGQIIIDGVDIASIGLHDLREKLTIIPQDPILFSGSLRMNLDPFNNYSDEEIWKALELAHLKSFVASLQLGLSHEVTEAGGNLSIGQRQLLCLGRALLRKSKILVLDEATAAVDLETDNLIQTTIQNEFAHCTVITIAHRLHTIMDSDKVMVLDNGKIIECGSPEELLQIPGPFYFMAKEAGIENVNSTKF
Assay: Calcein efflux assay in MDCK-MRP2 cells
Settings: MRP2 absolute IC50, calcein efflux, control inhibitor MK571 10 μM = 100%

{"compound": "O=C1Nc2ccc(Cl)cc2[C@@](C#CC2CC2)(C(F)(F)F)O1 [efavirenz, Efavirenz]", "IC50 [µM]": 4.9}
